Parameter glycan array binding signal (z-score): see the listing below.
# experimental target: Fuc(a1-2)Gal(b1-3)GlcNAc(b1-2)Man(a1-3)[Fuc(a1-2)Gal(b1-3)GlcNAc(b1-2)Man(a1-6)]Man(b1-4)GlcNAc(b1-4)GlcNAc
# run description: glycan array binding signal (z-score within array); higher = stronger binding
# measurement parameters: glycan notation: IUPAC condensed, linker removed
Shown is part of a subset that was picked to be rich in the strongest signals.
Could you respond with only the numeric value?

A selection of reference data follows.
| binder | quantity | measured number |
| --- | --- | --- |
| SJCP1531 (Schistosoma japonicum) (protein) MFKVRIINLVNISTVLLLINLLQTKSQVNVEQLVTVLEVNIKAQLKNKTTEVLVEWNPLYQDNSMPEYRKLLDETCKLFLPFVNEKVPPSTYGGECTNANFSEAPQDGSYSRVNAELRLIYKYSDNPQIQTDRLQDDLNDREEFITSESSFVAYNPKFTVKIEKLFIPISESQTTPPPTTAKNDASKKDDDDNGGEDSKAPIDTFAMTASGNKGKKDDDDNGGEDSKAPIDTFAMTASGSKDERSTWTIIGIITLVVLIFVVIGGGITVFVKRC | glycan array binding signal (z-score) | -0.207 |
| SpnanA (Streptococcus pneumoniae), P62575 (protein) MVIEKEDVETNASNGQRVDLSSELDKLKKLENATVHMEFKPDAKAPAFYNLFSVSSATKKDEYFTMAVYNNTATLEGRGSDGKQFYNNYNDAPLKVKPGQWNSVTFTVEKPTAELPKGRVRLYVNGVLSRTSLRSGNFIKDMPDVTHVQIGATKRANNTVWGSNLQIRNLTVYNRALTPEEVQKRS | glycan array binding signal (z-score) | -0.237 |

In the following, a different binder is considered.
So for HA-61200 (Pseudomonas aeruginosa), Q02SP8_PSEAB (protein) MNKCYALVWNVSQGCWNVVSEGSRRRGKPAGAKAAIASVLALLGATALAPAYALPSGGTVVGGSANGEIHLSGGNSLSVNQKVDKLIANWDSFSVAAGERVIFNQPSSSSIALNRVIGTKASDIQGRIDANGQVFLVNPNGVLFGRGAQVNVGGLVASTLDITDAEFNGNSSRYRFTGPSTNGVLNHGGAITAAEGGSIALLGAQVDNRGTVLAQMGGVGLGAGSDLTLNFDGNKLLDIRVDAGVANALASNGGLLKADGGRVLMAARTANALLNTVVNSQGAIEARSLRGKNGRIVLDG , the logged glycan array binding signal (z-score) turned out to be 4.52
